Where do the numbers come from? From paper PMC7814958.

- Study System: UniProtKB Q15758
- Sequence (Q15758 whole entry): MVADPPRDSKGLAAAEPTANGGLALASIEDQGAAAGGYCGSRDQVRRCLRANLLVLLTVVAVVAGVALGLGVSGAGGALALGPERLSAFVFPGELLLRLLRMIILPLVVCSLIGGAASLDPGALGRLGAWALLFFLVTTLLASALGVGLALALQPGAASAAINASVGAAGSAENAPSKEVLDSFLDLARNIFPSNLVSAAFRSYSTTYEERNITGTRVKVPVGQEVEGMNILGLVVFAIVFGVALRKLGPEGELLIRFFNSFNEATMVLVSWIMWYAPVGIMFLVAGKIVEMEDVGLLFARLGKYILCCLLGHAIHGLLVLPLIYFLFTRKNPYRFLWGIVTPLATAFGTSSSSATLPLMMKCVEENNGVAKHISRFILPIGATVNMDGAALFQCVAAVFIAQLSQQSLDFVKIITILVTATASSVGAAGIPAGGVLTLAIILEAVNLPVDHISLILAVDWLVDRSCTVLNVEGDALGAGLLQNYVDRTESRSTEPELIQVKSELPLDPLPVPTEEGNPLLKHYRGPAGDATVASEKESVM
- Assay Overview: [3H]glutamine uptake concentration dependency
Measured Parameter: Ki (µM)
Use µM as the unit, but write only the number.

INSERT INTO results (structure_smiles, study_system, measured_parameter, recorded_number) VALUES
  ('N[C@@H](CCC(=O)Nc1ccc(F)cc1)C(=O)O', 'UniProtKB Q15758', 'Ki', 234);

Proceeding to the next molecule to report its Ki.
# input molecule: N[C@@H](CCC(=O)Nc1ccc(-c2ccc(F)cc2)cc1)C(=O)O ; wanted: its Ki
604
